# TARGET_OR_TEST_SYSTEM: HCV polymerase (NS5B) type 1a (Hepatitis C virus genotype 1a, UniProt P26664)
# Construct: made in house; host or cells: Escherichia coli (by the 'similar method' of the 1b enzyme)
# ASSAY_COMMENT: Assay of enzyme (HCV polymerase) inhibitory activity, type 1a enzyme
# Type: biochemical, HCV type 1a (cloned from the blood of patients)
# ASSAY_CONDITIONS: HCV polymerase inhibitory activity IC50, 1a, type 1a enzyme
pIC50: −log10 of the molar value.
Item-by-item account of pIC50

Example cases with answers are listed next.
CCCc1ccc(CNC(=O)[C@H]2CN(c3nc4c(C(=O)OCC)nnc(Cl)c4s3)CCN2S(=O)(=O)c2ccc(CC)cc2)cc1 = > 7.00
CCC(F)(F)c1ccc(CNC(=O)[C@H]2CN(c3cnc4cncnc4n3)CCN2S(=O)(=O)c2ccc([C@H]3CC[C@H](CC(=O)O)CC3)cc2)cc1 = > 7.00
CCC(F)(F)c1ccc(CNC(=O)[C@H]2CN(c3cnc4cnccc4n3)CCN2S(=O)(=O)c2ccc([N+](=O)[O-])cc2)cc1 = > 7.00

Request: Would you mind telling me what pIC50 value was observed for `CCC(F)(F)c1ccc(CNC(=O)[C@H]2CN(C(=O)C(=O)O)CCN2S(=O)(=O)c2ccc(OC(F)(F)F)cc2)cc1` ?
Response: < 6.00

Request: Which measured pIC50 value corresponds to `CC(=O)c1sc(N2CCN(S(=O)(=O)c3ccc(OC(F)(F)F)cc3)[C@@H](C(=O)NCc3ccc(OC(F)(F)F)cc3)C2)nc1C` ?
Response: > 7.00

Request: Suppose we examine the compound `CCCc1ccc(CNC(=O)[C@H]2CN(c3nc(Cl)c(C(=O)O)s3)CCN2S(=O)(=O)c2ccc(CC)cc2)cc1` ; what pIC50 value has been reported?
Response: > 7.00

Request: // lookup pIC50 for `O=C(NCc1ccc(OC(F)(F)F)cc1)[C@H]1CN(c2nc3cn[nH]c(=O)c3s2)CCN1S(=O)(=O)c1ccc(C(F)(F)F)cc1`
Response: > 7.00

Request: Entry `CNC(=O)c1ncc2sc(N3CCN(S(=O)(=O)c4ccc(OC(F)(F)F)cc4)[C@@H](C(=O)NCc4ccc(OC(F)(F)F)cc4)C3)nc2n1` has what pIC50?
Response: > 7.00

Request: Which pIC50 is listed for `CCC(F)(F)c1ccc(CNC(=O)[C@H]2CN(c3cnc4cncnc4n3)CCN2S(=O)(=O)c2ccc(C(F)(F)F)cc2)cc1` ?
Response: > 7.00

Request: I would be grateful if you could share the reported pIC50 for `Nc1nc(Cl)nc2nc(N3CCN(S(=O)(=O)c4ccc(OC(F)(F)F)cc4)[C@@H](C(=O)NCc4ccc(OC(F)(F)F)cc4)C3)sc12` .
Response: > 7.00

Request: Given the entry `O=C(NCc1ccc(OC(F)(F)F)cc1)[C@H]1CN(c2nc3nc(C4CC4)ncc3s2)CCN1S(=O)(=O)c1ccc(C2CC2)cc1` , report its measured pIC50.
Response: > 7.00

The reported measurements were obtained from patent US8017612B2.
